# experiment notes: Toxicity liver stage against HepG2, at 10uM
# Format: cell-based
# Parameters: test concentration 10 uM, cell line HepG2-A16-CD81EGFP
# settings: human, HepG2-A16-CD81EGFP cells; read-out: INHIBITION
readout name: cytotoxicity at 10 µM (%)
Write the number in % without appending the unit.

INSERT INTO results (compound, readout_unit, measured) VALUES
  ('COCCN(Cc1cccc(C#N)c1)Cc1nc(C)no1', '%', 1.18),
  ('CCc1noc(CN(C)C(=O)c2ccnc(OC3CCC3)c2)n1', '%', 4.86),
  ('CCOc1ccc(CN2C(=O)CC(CC)(CC)C2=O)nc1', '%', 5.73),
  ('CCCN(Cc1cccnc1)Cc1ccc(C2CCCCO2)o1 (stereo unspecified)', '%', 1.97),
  ('CNC(=O)C1CCN(C(=O)CCn2cccn2)CC1', '%', -3.76),
  ('Cc1cnn(CCNCc2ccc(OCc3ccncc3)cc2)c1', '%', -2.99),
  ('CCN1CCN(C[C@@H]2CN(c3ncc(Cl)cc3F)C[C@@H]2CO)CC1', '%', -7.06),
  ('CCN(CCn1cccn1)Cc1nc(-c2cc(F)ccc2F)oc1C', '%', -1.57);

### Prompt Record request: cytotoxicity at 10 µM value, item O=C(N[C@]12CC1CN(C(=O)c1ccco1)C2)c1cccc(F)c1 (stereo partly specified)
### Response -15.3

### Prompt Record request: cytotoxicity at 10 µM value, item CCN(Cc1cccc(C(=O)Nc2c(C)cnn2C)c1)[C@H]1COC[C@@H]1O
### Response -1.58

### Prompt Record request: cytotoxicity at 10 µM value, item CCO[C@H]1C[C@@H](O)C12CCN(C1CCN(c3ccccc3C)CC1)CC2
### Response 9.9
